- System: SW480
- assay.notes: cell viability (CellTiter-Glo) relative to plate median (fraction of plate median); higher = more viable cells
- measurement.parameters: 5 µM; treatment time 24 h; reporter: 7TFP
property.measured: cell viability
Just the number, please, no unit after it.

Given the entry `COc1cc2c(cc1OC)[C@@H]1C(=O)c3ccc4c(c3O[C@@H]1CO2)C=CC(C)(C)O4` , report its measured cell viability.
1.02

Given the entry `Oc1ccc(O)cc1` , report its measured cell viability.
0.959

Given the entry CCN1CCCC1CNC(=O)c1cc(S(N)(=O)=O)ccc1OC (stereo unspecified) , report its measured cell viability.
1.02

Given the entry `COc1ccc(-c2cc(=O)c3c(OC)c(OC)c(OC)cc3o2)cc1OC` , report its measured cell viability.
1.01

Given the entry `O=C(O)c1c2ccccc2cc2ccccc12` , report its measured cell viability.
1.01

Given the entry `CC12CCC(CC1)C(C)(C)O2` , report its measured cell viability.
0.934

Given the entry `COc1cc2c(cc1OC)[C@@H]1Cc3ccc(OC)c(OC)c3CN1CC2` , report its measured cell viability.
0.927

Given the entry `COc1cc(O)cc(OC)c1OC` , report its measured cell viability.
0.942

Given the entry `O=C(O)[C@]1(O)C[C@@H](O)[C@@H](O)[C@H](O)C1` , report its measured cell viability.
0.934

Given the entry C1CCC(C(CC2CCCCN2)C2CCCCC2)CC1 (stereo unspecified) , report its measured cell viability.
1.12

Given the entry `CC[C@H](C)C(=O)O[C@H]1C[C@@H](C)C=C2C=C[C@H](C)[C@H](CC[C@@H]3C[C@@H](O)CC(=O)O3)[C@H]21` , report its measured cell viability.
1.03

---

- System: SW480
- assay.notes: cell viability (CellTiter-Glo) relative to plate median (fraction of plate median); higher = more viable cells
- measurement.parameters: 5 µM; treatment time 24 h; reporter: 7TFP
property.measured: cell viability
Just the number, please, no unit after it.

Given the entry `C[C@H](CCC(=O)O)[C@H]1CC[C@H]2[C@@H]3[C@H](O)C[C@@H]4C[C@H](O)CC[C@]4(C)[C@H]3C[C@H](O)[C@]12C` , report its measured cell viability.
1.04

Given the entry `NC(=O)N(CCc1ccccc1)CCc1ccccc1` , report its measured cell viability.
1.06

Given the entry CC1NC(=O)CNC1=O (stereo not given) , report its measured cell viability.
0.925

Given the entry `Cc1cc(-c2ncc(CC(=O)Nc3ccc(-c4cnccn4)cn3)cc2C)ccn1` , report its measured cell viability.
0.914

Given the entry `O=C1NS(=O)(=O)c2ccccc21` , report its measured cell viability.
1.03

Given the entry `Nc1nc(=O)c2nc(CNc3ccc(C(=O)N[C@@H](CCC(=O)O)C(=O)O)cc3)cnc2[nH]1` , report its measured cell viability.
1.03

Given the entry `Oc1cc(O)c2c(c1)O[C@H](c1cc(O)c(O)c(O)c1)[C@H](O)C2` , report its measured cell viability.
0.973

Given the entry `Cc1cc(CC(=O)O)n(C)c1C(=O)c1ccc(Cl)cc1` , report its measured cell viability.
1.05

Given the entry `COc1ccc(-c2cc(=O)c3c(O)c(OC)c(OC)c(OC)c3o2)cc1OC` , report its measured cell viability.
1.15

Given the entry `Cc1c(NC(=O)c2cccnc2)c(=O)n(-c2ccccc2)n1C` , report its measured cell viability.
0.981
